Reference for the values: patent US20210130436A1

System under test: T1, human CTLA4 (full-length, expressed on CHO cells) (human, UniProt P16410 36-223)
T1 construct: also called huCTLA4
T1 sequence (P16410 36-223): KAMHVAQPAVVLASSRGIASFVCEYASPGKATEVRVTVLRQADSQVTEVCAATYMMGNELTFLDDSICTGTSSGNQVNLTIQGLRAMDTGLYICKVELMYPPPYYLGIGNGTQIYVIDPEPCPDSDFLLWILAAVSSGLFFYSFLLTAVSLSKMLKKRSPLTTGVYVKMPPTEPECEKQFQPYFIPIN
Assay method text: flow cytometry MFI at 33.3 nM relative to WT CD80 ECD-Fc (R&D), CHO/huCTLA4 cells
Entries and their Fold change to WT CD80
Experimental readout: Fold change to WT CD80 (fold)

variant CD80 IgV-Fc Y31S/E35D/M47L/T79L/E88G (Fc fusion, not shown: a dimerising Fc or GST) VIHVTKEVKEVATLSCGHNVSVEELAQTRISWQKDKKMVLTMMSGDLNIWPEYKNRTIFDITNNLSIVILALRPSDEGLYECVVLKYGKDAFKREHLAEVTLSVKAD; 0.01
variant CD80 IgV-Fc H18Y/V20A/Q33L/E35D/M47V/Y53F (Fc fusion, not shown: a dimerising Fc or GST) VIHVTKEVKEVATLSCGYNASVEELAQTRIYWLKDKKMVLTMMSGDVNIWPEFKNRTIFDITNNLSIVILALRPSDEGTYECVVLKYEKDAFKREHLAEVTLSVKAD; 0.02
